Assay info: MTT viability assay
Experimental context: human, HaCaT keratinocytes

Molecule	viability at 48 h, 0.4 mM / %
O=C(O)c1ccccc1O [SA, Salicylic acid, reference compound]	71

---

Measured Viability of HaCaT after 48 h Treatment with 0.4 mM IL or SA by item
Test system: human keratinocytes (HaCaT cells)
Assay info: MTT viability assay
Experimental context: 48 h, 0.4 mM; calculated as percentage of medium control; in %
Description: Finally, control experiments with non-treated cells were performed. We applied an assay based on the reduction of methyl thiazol tetrazolium bromide (MTT) to assess the effect of the compounds on the viability of HaCaT cells. […] After that, the cells were lysed with a solution of DMSO:ethanol (1:1 v/v). The absorbance of the reduced formazan dye product was read at 560 nm in a microplate reader (Biosan). The results were calculated for each sample concentration as a percentage of medium control. […]
Attribute measured: Viability of HaCaT after 48 h Treatment with 0.4 mM IL or SA

Compound	Measured number
CCCCOC(=O)[C@@H](N)C(C)C.O=C(O)c1ccccc1O [[ValOBu][SA], L-valine butyl ester salicylate]	74
CCCOC(=O)[C@@H](N)Cc1ccccc1.O=C(O)c1ccccc1O [[PheOPr][SA], L-phenylalanine propyl ester salicylate]	93
CC(C)OC(=O)[C@@H](N)C(C)C.O=C(O)c1ccccc1O [[ValOiPr][SA], L-valine isopropyl ester salicylate]	66
CCOC(=O)[C@@H](N)Cc1ccccc1.O=C(O)c1ccccc1O [[PheOEt][SA], L-phenylalanine ethyl ester salicylate]	105
CCOC(=O)[C@@H](N)C(C)C.O=C(O)c1ccccc1O [[ValOEt][SA], L-valine ethyl ester salicylate]	74
CCCOC(=O)[C@@H](N)C(C)C.O=C(O)c1ccccc1O [[ValOPr][SA], L-valine propyl ester salicylate]	74

---

Measured Tonset, the onset of the thermal degradation by item
Experimental context: TG, air atmosphere, 10 °C·min^−1
Attribute measured: Tonset, the onset of the thermal degradation (°C)

Compound	Units label	Measured number
CC(C)OC(=O)[C@@H](N)C(C)C.O=C(O)c1ccccc1O [[ValOiPr][SA], L-valine isopropyl ester salicylate]	°C	163.1
CCCCOC(=O)[C@@H](N)C(C)C.O=C(O)c1ccccc1O [[ValOBu][SA], L-valine butyl ester salicylate]	°C	171.8
CCCOC(=O)[C@@H](N)C(C)C.O=C(O)c1ccccc1O [[ValOPr][SA], L-valine propyl ester salicylate]	°C	177.9
CCOC(=O)[C@@H](N)Cc1ccccc1.O=C(O)c1ccccc1O [[PheOEt][SA], L-phenylalanine ethyl ester salicylate]	°C	181.1
CCOC(=O)[C@@H](N)C(C)C.O=C(O)c1ccccc1O [[ValOEt][SA], L-valine ethyl ester salicylate]	°C	157.6
CCCOC(=O)[C@@H](N)Cc1ccccc1.O=C(O)c1ccccc1O [[PheOPr][SA], L-phenylalanine propyl ester salicylate]	°C	185.0
O=C(O)c1ccccc1O [SA, Salicylic acid, reference compound]	°C	171.3

---

Assay info: Solubility in water, HPLC of saturated solutions
Experimental context: 25 °C; g of compound per dm^3
Protocol: Then, the obtained saturated solutions were diluted 100 times and analyzed. […] A mixture of 50% acetonitrile and 50% water was used as the mobile phase. The flow rate was 1 cm^3·min^−1. The column temperature was 30 °C. A Luna® Omega 3 µm Polar C18 100 Å column with dimensions of 150 × 4.6 mm was used. The injection volume for these samples was 50 mm^3. Each measurement was performed in triplicate, and the results were averaged.
Measured Solubility in Water at 25 °C by item

Compound	Units label	Solubility in Water at 25 °C
CCCOC(=O)[C@@H](N)Cc1ccccc1.O=C(O)c1ccccc1O [[PheOPr][SA], L-phenylalanine propyl ester salicylate]	g·dm^−3	1.143
CCCOC(=O)[C@@H](N)C(C)C.O=C(O)c1ccccc1O [[ValOPr][SA], L-valine propyl ester salicylate]	g·dm^−3	21.789
CCOC(=O)[C@@H](N)C(C)C.O=C(O)c1ccccc1O [[ValOEt][SA], L-valine ethyl ester salicylate]	g·dm^−3	26.070

All figures here come from paper PMC8746858.
